Test system: adjuvant induced arthritis (Freund's adjuvant) in rats
Test: Adjuvant induced arthritis in rats (oral, once daily days 0 through 13 post challenge)
Assay type: in vivo, Royal Hart, Wistar strain rats
Conditions: oral 50 mg./kg.; Day 14
Assay Endpoint: Inhibition of Swelling (primary lesion)
Form field: result (number plus unit)

Enquiry: Can you share its Inhibition of Swelling (primary lesion)? I mean this compound: N#CCC(=O)c1ccsc1 [β-Oxo-3-thiophenepropionitrile, β-oxo-3-thiophenepropionitrile]
Return: 61%

Enquiry: Field entry: N#CC=C(N)c1cccs1 [β-Amino-2-thiopheneacrylonitrile, β-amino-2-thiopheneacrylonitrile]
Return: 44%

Enquiry: Field entry: N#CC=C(N)c1ccsc1 [β-Amino-3-thiopheneacrylonitrile, β-amino-3-thiopheneacrylonitrile]
Return: 52%

Enquiry: Field entry: CC(=O)Oc1ccccc1C(=O)O [Aspirin, reference compound]
Return: 23%
